# reported IC50; entries follow
tested_on: human progesterone receptor A (Homo sapiens)
Sequence (P06401 1-769 isoform P06401-2): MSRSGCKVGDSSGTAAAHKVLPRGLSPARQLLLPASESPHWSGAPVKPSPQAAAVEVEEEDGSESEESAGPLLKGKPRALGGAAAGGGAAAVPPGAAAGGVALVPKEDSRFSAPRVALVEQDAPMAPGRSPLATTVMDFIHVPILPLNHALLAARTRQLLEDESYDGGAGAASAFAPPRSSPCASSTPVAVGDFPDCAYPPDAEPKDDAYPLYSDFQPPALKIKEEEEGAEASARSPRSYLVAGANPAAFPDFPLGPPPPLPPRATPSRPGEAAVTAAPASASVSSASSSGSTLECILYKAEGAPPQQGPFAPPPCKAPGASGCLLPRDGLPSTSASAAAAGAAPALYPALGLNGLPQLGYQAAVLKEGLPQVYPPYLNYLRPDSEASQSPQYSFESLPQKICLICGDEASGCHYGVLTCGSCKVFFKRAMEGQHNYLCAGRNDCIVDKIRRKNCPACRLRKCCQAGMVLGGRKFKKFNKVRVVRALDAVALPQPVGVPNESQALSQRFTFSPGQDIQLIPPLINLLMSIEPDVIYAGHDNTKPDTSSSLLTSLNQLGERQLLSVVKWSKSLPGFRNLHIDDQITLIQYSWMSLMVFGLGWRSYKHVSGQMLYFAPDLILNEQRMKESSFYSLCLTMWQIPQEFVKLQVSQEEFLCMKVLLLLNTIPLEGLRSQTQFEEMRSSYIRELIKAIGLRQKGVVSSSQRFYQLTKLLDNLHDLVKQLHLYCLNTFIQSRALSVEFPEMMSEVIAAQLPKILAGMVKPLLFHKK
protocol_description: Progesterone receptor-antagonistic action in stably transfected SK-N-MC cells, MMTV-LUC reporter (PR-A)
conditions_used: antagonistic potency vs 0.1 nmol/l promegestone, 24 hours
Answer with a number only, understood to be in nM.

Example cases with answers are listed next.
C[C@]12C[C@H](c3ccc(CN=[N+]=[N-])cc3)C3=C4CCC(=O)C=C4CC[C@H]3[C@@H]1CC[C@@]2(O)C(F)(F)C(F)(F)F [Example 28] ... 0.01
C[C@]12C[C@H](c3ccc([C@@H]4CC4CO)cc3)C3=C4CCC(=O)C=C4CCC3C1CC[C@@]2(O)C(F)(F)C(F)(F)F (single isomer, unassigned) [Example 6A] ... 0.1
CC1(C)OCC(C)(c2ccc([C@H]3C[C@@]4(C)[C@@H](CC[C@@]4(O)C(F)(F)C(F)(F)F)[C@@H]4CCC5=CC(=O)CCC5=C43)cc2)CO1 [Example 15B] ... 0.01
C[C@]12C[C@H](c3ccc(CNC(=O)NCc4ccccc4)cc3)C3=C4CCC(=O)C=C4CC[C@H]3[C@@H]1CC[C@@]2(O)C(F)(F)C(F)(F)F [Example 23] ... 0.3

Shifting focus to the compound that follows.
Q) // lookup IC50 for CCOC(=O)CNC(=O)NCc1ccc([C@H]2C[C@@]3(C)[C@@H](CC[C@@]3(O)C(F)(F)C(F)(F)F)[C@@H]3CCC4=CC(=O)CCC4=C32)cc1 [Example 21]
A) 1.2
